Reference source for all entries: ChEMBL document CHEMBL4840359

Reported Intrinsic activity values are given for each entry in this list.
SYSTEM: UniProtKB P50391
Sequence (P50391 whole entry): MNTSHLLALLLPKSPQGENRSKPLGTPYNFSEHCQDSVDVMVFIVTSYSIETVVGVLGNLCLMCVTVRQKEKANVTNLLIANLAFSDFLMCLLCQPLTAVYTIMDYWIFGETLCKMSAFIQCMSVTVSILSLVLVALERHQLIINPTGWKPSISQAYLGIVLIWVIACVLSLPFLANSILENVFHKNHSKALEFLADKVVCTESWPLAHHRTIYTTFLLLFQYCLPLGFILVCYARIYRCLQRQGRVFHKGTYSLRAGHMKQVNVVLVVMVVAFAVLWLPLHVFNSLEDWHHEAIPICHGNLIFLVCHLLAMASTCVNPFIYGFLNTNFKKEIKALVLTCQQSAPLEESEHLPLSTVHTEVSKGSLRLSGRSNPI
PROCEDURE SUMMARY: Intrinsic activity at human neuropeptide Y Y4 receptor expressed in HEK293T-ARRB1 cells assessed as stimulation of beta-arrestin 1 recruitment by multimode plate reader relative to hPP
Assay type: functional, cell-based
Starred links: 1 amine or outer side, 2 acyl side, 3 side chain; linkers in the order of their positions; H or OH if unused. Residues, ends and D or L forms follow the SMILES beside them. Groups on a side chain read outwards from the residue. *: point of attachment. Suc = O=C(CCC(=O)[*:2])[*:1]; NH(CH2)4NH2 = NCCCCN*; CO = O=C([*:1])[*:2]

In the examples that follow, each entry is paired with its recorded Intrinsic activity.
Look up Intrinsic activity for this molecule: CC(C)C[C@H](NC(=O)[C@H](CCCNC(=N)NC(=O)NCCCCN)NC(=O)[C@H](Cc1c[nH]c2ccccc12)NC(=O)[C@H](CCCNC(=N)N)NC(=O)CCC(=O)O)C(=O)N[C@@H](CCCNC(=N)N)C(=O)N[C@@H](Cc1ccc(O)cc1)C(N)=O 67%

Check CC(C)C[C@H](NC(=O)[C@H](CCCNC(=N)NC(=O)NCCCCN)NC(=O)[C@H](Cc1ccc(O)cc1)NC(=O)[C@H](CCCCN)NC(=O)CCC(=O)O)C(=O)N[C@@H](CCCNC(=N)N)C(=O)N[C@@H](Cc1ccc(O)cc1)C(N)=O (Suc-KYR([CO-NH(CH2)4NH2])LRY-NH2) too. 57%

Try this molecule next: CC(C)C[C@H](NC(=O)[C@@H]1CCCNC(=N)NC(=O)NCCCCNC(=O)CCC(=O)N[C@@H](CCCNC(=N)N)C(=O)N[C@@H](Cc2ccc(O)cc2)C(=O)N1)C(=O)N[C@@H](CCCNC(=N)N)C(=O)N[C@@H](Cc1ccc(O)cc1)C(N)=O 68%

Quick one: CC(C)C[C@H](NC(=O)[C@@H]1CCCNC(=N)NC(=O)NCCCCNC(=O)CCC(=O)N[C@@H](CCCCN)C(=O)N[C@@H](Cc2ccc(O)cc2)C(=O)N1)C(=O)N[C@@H](CCCNC(=N)N)C(=O)N[C@@H](Cc1ccc(O)cc1)C(N)=O (HELM PEPTIDE1{K.Y.[N=C(NCCC[C@H](N[*:1])C(=O)[*:2])N[*:3]].L.R.Y.[am]}|CHEM1{[O=C(CCC(=O)[*:1])NCCCCNC(=O)[*:2]]}$PEPTIDE1,CHEM1,1:R1-1:R1|PEPTIDE1,CHEM1,3:R3-1:R2$$$V2.0) 61%

Here is the next molecule: CC(C)C[C@H](NC(=O)[C@H](CCCNC(=N)NC(=O)NCCCCN)NC(=O)[C@H](Cc1ccc(O)cc1)NC(=O)[C@H](CCCNC(=N)N)NC(=O)CCC(=O)O)C(=O)N[C@@H](CCCNC(=N)N)C(=O)N[C@@H](Cc1ccc(O)cc1)C(N)=O 75%

Cool, now N=C(N)NCCC[C@@H]1NC(=O)CCC(=O)NCCCNC(=O)NC(=N)NCCC[C@@H](C(=O)N[C@@H](Cc2c[nH]c3ccccc23)C(=O)N[C@@H](CCCNC(=N)N)C(=O)N[C@@H](Cc2ccc(O)cc2)C(N)=O)NC(=O)[C@H](Cc2ccc(O)cc2)NC1=O (HELM PEPTIDE1{R.Y.[N=C(NCCC[C@H](N[*:1])C(=O)[*:2])N[*:3]].W.R.Y.[am]}|CHEM1{[O=C(CCC(=O)[*:1])NCCCNC(=O)[*:2]]}$PEPTIDE1,CHEM1,1:R1-1:R1|PEPTIDE1,CHEM1,3:R3-1:R2$$$V2.0) 35%

---
Fill blank: measured Intrinsic activity of the molecule CC(=O)N[C@@H](CCCNC(=N)N)C(=O)N[C@@H](Cc1ccc(O)cc1)C(=O)N[C@@H](CCCNC(=N)N)C(=O)N[C@@H](CC(C)C)C(=O)N[C@@H](CCCNC(=N)N)C(=O)N[C@@H](Cc1ccc(O)cc1)C(N)=O is ____. 55%
